Listing of recorded Trimeric HA Binding: RLU by entry.
target: recombinant homotrimeric HA A/California/4/09 H1N1 (Influenza A virus A/California/04/2009(H1N1)); assay: protein microarray, purified IgG, trimeric HA; conditions: remark: other sources report otherwise
Unit RLU implied. Number only.

Worked set:
Challenge: Look up Trimeric HA Binding: RLU for this binder: TCN-522 (3212_I12) (antibody, V domains shown) VH: QVQLQQWGAGLLKPSETLSLTCTVSGGSLTDYSWNWIRQPPGKGLEWIGDTLHNGYTNYNPSLRGRVSISIDTSKNQVSLRLTSVTAADTALYYCARGSGGYGGFDYFGKLRTWDFWGQGTLVTVSS VL: DIQLTQSPSSLSASVGDRVTITCRASQGIRNDLGWYQQKPGNAPKRLIFGASSLQSGVPSRFSGSGSGTEFTLTISSLQPEDFATYYCLQHNSYPYTFGQGTKLEIK
Response given: 13900

Challenge: Look up Trimeric HA Binding: RLU for this binder: TCN-523 (5248_A17) (antibody, V domains shown) VH: QVQLVQSGAEVKKPGSSVKVSCKASGGSFSNYAFSWVRQAPGQGLEWMGGTIPLLGTTNYAQKFQGRVTISADQFTSTAYMELGSLRSEDTAVYYCTRRKMTTAFDSWGQGTLVTVSS VL: QPVLTQPPSASASLGASVTLTCTLSSAYSNYKVDWYQQRPGKGPRFVMRVGTGGIVGSKGDGIPDRFSVLGSGLNRYLTIKNIQEEDESDYHCGADHGSGSNFVSPYVFGGGTKLTVL
Response given: 19500

Further cases:
Challenge: Look up Trimeric HA Binding: RLU for this binder: TCN-546 (5089_L08) (antibody, V domains shown) VH: QVQLQQWGAGLLKPSETLSLTCGVYGGSLSDYYWSWIRQPPGKGLEWIGEINHSGGTNYNPSLKRRVTISVDTSKKQFSLKMNSVTAADTAVYYCARGTDPDTEVYCRAGNCAAFDFWGQGTLVTVSS VL: EIVLTQSPGTLSLSPGERATLSCRASHFVIGRAVAWYQQKPGQAPRLLIYGASSRATGIPDRFSGSGSGTDFTLTISRLETEDFAVFYCQHYGSSPRYAFGQGTKLEIK
Response given: 277
